# Test system: S. aureus Mu50
# Assay Info: MIC, microdilution in CAMHB 24 h
# Type: cell-based, Staphylococcus aureus
# Details: Staphylococcus aureus; Mu50; Human (SSTI); MRSA, VISA; read-out: MIC
Experimental Readout: MIC

smiles=NC[C@H]1O[C@H](O[C@H]2[C@H](O)[C@@H](O[C@H]3O[C@H](CO)[C@@H](O)[C@H](N)[C@H]3O)[C@H](N)C[C@@H]2N)[C@H](N)C[C@@H]1O target_of_assay="S. aureus Mu50" experimental_readout=MIC val="1020 mg/L"
smiles=CC[C@H]1OC(=O)[C@H](C)[C@@H](O[C@H]2C[C@@](C)(OC)[C@@H](O)[C@H](C)O2)[C@H](C)[C@@H](O[C@@H]2O[C@H](C)C[C@H](N(C)C)[C@H]2O)[C@](C)(O)C[C@@H](C)C(=O)[C@H](C)[C@@H](O)[C@]1(C)O target_of_assay="S. aureus Mu50" experimental_readout=MIC val="> 64 mg/L"
smiles=CCn1cc(C(=O)O)c(=O)c2cc(F)c(N3CCNCC3)cc21 target_of_assay="S. aureus Mu50" experimental_readout=MIC val="> 64 mg/L"
smiles=O=C(O)c1cn(C2CC2)c2cc(N3CCNCC3)c(F)cc2c1=O target_of_assay="S. aureus Mu50" experimental_readout=MIC val="32 to 64 mg/L"
smiles=NC[C@H]1O[C@H](O[C@H]2[C@H](O)[C@@H](O[C@H]3O[C@H](CO)[C@@H](O)[C@H](N)[C@H]3O)[C@H](N)C[C@@H]2N)[C@H](O)[C@@H](O)[C@@H]1O target_of_assay="S. aureus Mu50" experimental_readout=MIC val="> 1020 mg/L"

====

# System: S. aureus SCV NewbouldΔhemB
# Assay Info: MIC, microdilution in BHI 48 h
# Type: cell-based, Staphylococcus aureus
# Details: Staphylococcus aureus
Experimental Readout: MIC

smiles=C[C@H]1CC[C@]2(NC1)O[C@H]1C[C@H]3[C@@H]4CC[C@H]5C[C@@H](O)CC[C@]5(C)[C@H]4CC[C@]3(C)[C@H]1[C@@H]2C target_of_assay="S. aureus SCV NewbouldΔhemB" experimental_readout=MIC val="0.12 mg/L"
smiles=O=C(O)c1cn(C2CC2)c2cc(N3CCNCC3)c(F)cc2c1=O target_of_assay="S. aureus SCV NewbouldΔhemB" experimental_readout=MIC val="0.12 to 0.25 mg/L"
smiles=CC[C@H]1OC(=O)[C@H](C)[C@@H](O[C@H]2C[C@@](C)(OC)[C@@H](O)[C@H](C)O2)[C@H](C)[C@@H](O[C@@H]2O[C@H](C)C[C@H](N(C)C)[C@H]2O)[C@](C)(O)C[C@@H](C)C(=O)[C@H](C)[C@@H](O)[C@]1(C)O target_of_assay="S. aureus SCV NewbouldΔhemB" experimental_readout=MIC val="> 16 mg/L"
smiles=CN[C@H](CC(C)C)C(=O)N[C@H]1C(=O)N[C@@H](CC(N)=O)C(=O)N[C@H]2C(=O)N[C@H]3C(=O)N[C@H](C(=O)N[C@H](C(=O)O)c4cc(O)cc(O)c4-c4cc3ccc4O)[C@H](O)c3ccc(c(Cl)c3)Oc3cc2cc(c3O[C@@H]2O[C@H](CO)[C@@H](O)[C@H](O)[C@H]2O[C@H]2C[C@](C)(N)[C@H](O)[C@H](C)O2)Oc2ccc(cc2Cl)[C@H]1O target_of_assay="S. aureus SCV NewbouldΔhemB" experimental_readout=MIC val="2 mg/L"

Data origin, for the record: patent US9457033B2
